# System: c-Abl (mouse)
# Protocol text: phosphorylation enrichment, bacterial display (enrichment ratio); higher = better substrate or ligand; peptides without Tyr show the background;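 further: 11-residue human phosphosite peptides and single-mutation variants displayed on the E. coli surface, counted by deep sequencing, each peptide's frequency after selection divided by its frequency in the unselected input library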;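 further: frequency after pTyr selection over input frequency; kinase dosed for 20-30% of maximal phosphorylation in three min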
I'd be grateful if you could share measured phosphorylation enrichment for these entries.
Numbers only.

The following sequences have reported results that may help.
I am curious: what phosphorylation enrichment value has been reported for SRIWVYNHFRC [BRCA2_Y2621_W2626C_YF] ?
0.976

Can you look up the measured phosphorylation enrichment of FCIDHYLGKEM [G6PD_Y202_R198C_YF] for me?
0.49

Further cases:
Form field: reported phosphorylation enrichment of NPQKSYFIHLY [WAS_Y83_R86H]
0.864

----------
Kindly supply the reported phosphorylation enrichment values for the records listed here.
# Tested on: Fes (UniProt P07332)
# Sequence (P07332 whole entry, looked up): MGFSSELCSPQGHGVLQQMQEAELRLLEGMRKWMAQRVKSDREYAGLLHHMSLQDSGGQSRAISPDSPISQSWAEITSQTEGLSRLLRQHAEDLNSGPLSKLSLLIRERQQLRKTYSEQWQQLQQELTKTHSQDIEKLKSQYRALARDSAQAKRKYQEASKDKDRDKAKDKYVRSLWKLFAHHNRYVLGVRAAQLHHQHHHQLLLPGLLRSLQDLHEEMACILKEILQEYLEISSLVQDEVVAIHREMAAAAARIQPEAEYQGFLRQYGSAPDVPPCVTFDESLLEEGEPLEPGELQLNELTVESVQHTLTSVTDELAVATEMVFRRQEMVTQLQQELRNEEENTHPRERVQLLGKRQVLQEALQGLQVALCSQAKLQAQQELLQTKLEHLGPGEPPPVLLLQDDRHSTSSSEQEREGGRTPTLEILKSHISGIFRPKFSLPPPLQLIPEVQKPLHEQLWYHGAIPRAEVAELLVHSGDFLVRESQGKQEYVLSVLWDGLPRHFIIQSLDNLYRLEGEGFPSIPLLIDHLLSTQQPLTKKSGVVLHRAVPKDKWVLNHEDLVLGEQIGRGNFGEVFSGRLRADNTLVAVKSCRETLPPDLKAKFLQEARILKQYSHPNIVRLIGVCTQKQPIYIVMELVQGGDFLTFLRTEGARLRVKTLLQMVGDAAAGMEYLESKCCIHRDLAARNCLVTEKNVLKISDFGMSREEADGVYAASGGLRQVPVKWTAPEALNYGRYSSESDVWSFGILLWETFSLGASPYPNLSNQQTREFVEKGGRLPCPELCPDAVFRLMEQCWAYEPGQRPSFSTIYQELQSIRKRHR
# Protocol text: phosphorylation enrichment, bacterial display (enrichment ratio); higher = better substrate or ligand; peptides without Tyr show the background
Answers are plain numbers.

Provide the reported phosphorylation enrichment of each entry below, same order.
1. DLAAQYTTVGR [SGSH_Y240]
2. SVSVNYGDLVQ [GRAP_Y101_Q104L]
3. VHLFAYDWISI [BEST1_Y227_G222V_YF]
4. RKLASYQSCLL [DHX37_Y1080_R1081Q]
5. VGQRPYQPLPE [REEP3_Y170]

1: 0.664; 2: 0.855; 3: 1.38; 4: 1.11; 5: 0.649
